# Species on record: Homo sapiens
# test protocol: Ester prodrugs: T1/2 in human plasma
# Type: ADME
# details: human, in vitro
measured metric: T1/2 (min)
Kindly answer with a numeric value in min, unit omitted.

compound	quantity unit	T1/2
CC12CCC(=O)C=C1CCC1C2C(O)CC2(C)C1CC[C@]2(O)C(=O)COC(=O)c1ccc(CN2CCOCC2)cc1 (some centres not stated)	min	92
C[C@H]1CC2C(C(O)CC3(C)C2CC[C@]3(O)C(=O)COC(=O)c2cccc(CN3CCN(C)CC3)c2)C2(C)C=CC(=O)C=C12 (some centres not stated)	min	29
O=C(OCn1ncc2c(=O)[nH]cnc21)c1cccc(Cn2ccnc2)c1	min	3.6

Can you look up the measured T1/2 of `O=C(OCn1ncc2c(=O)[nH]cnc21)c1cccc(CN2CCOCC2)c1` for me?
8.5

Let us now turn to `CC(=O)Nc1ccc(OC(=O)c2ccc(CN(C)C)cc2)cc1`
87

Let us now turn to `CN1CCN(Cc2ccc(C(=O)OCn3ncc4c(=O)[nH]cnc43)cc2)CC1`
11

Let us now turn to `CN1CCN(Cc2cccc(C(=O)OCn3ncc4c(=O)[nH]cnc43)c2)CC1`
0.5

Let us now turn to CCN(CC)Cc1cccc(C(=O)OCC(NC(=O)C(Cl)Cl)C(O)c2ccc([N+](=O)[O-])cc2)c1 (configuration not stated)
8

Let us now turn to `Cn1c(=O)c2c(ncn2COC(=O)c2cccc(Cn3ccnc3)c2)n(C)c1=O`
0.9

Let us now turn to `O=C(OCn1ncc2c(=O)[nH]cnc21)c1ccc(CN2CCOCC2)cc1`
1.9

Let us now turn to CN1CCN(Cc2cccc(C(=O)OCC(=O)[C@@]3(O)CCC4C5CCC6=CC(=O)CCC6(C)C5C(O)CC43C)c2)CC1 (some centres not stated)
15

Let us now turn to `CCN(CC)Cc1cccc(C(=O)OCN2C(=O)NC(c3ccccc3)(c3ccccc3)C2=O)c1`
20

---

# Organism: Homo sapiens
# test protocol: Ester prodrugs: T1/2 in human plasma
# Assay type: ADME
# details: human, in vitro
measured metric: log10 T1/2 (log10 of the value in min)
Recall that a logarithmic scale is used here: each number is log10 of T1/2 in min.

Some solved entries appear below for comparison.
molecule	log10 T1/2
CCN(CC)CCN(CC)Cc1cccc(C(=O)Oc2ccc(NC(C)=O)cc2)c1	1.18
Nc1nc(O)c2ncn(COCCOC(=O)c3ccc(CN4CCOCC4)cc3)c2n1	0.57
CCN(CC)CCN(CC)Cc1cccc(C(=O)OCC(=O)[C@@]2(O)CCC3C4CCC5=CC(=O)CCC5(C)C4C(O)CC32C)c1 (some centres undefined)	0.90
CNCc1cccc(C(=O)OCC(=O)[C@@]2(O)CCC3C4CCC5=CC(=O)CCC5(C)C4C(O)CC32C)c1 (some centres undefined)	1.40
CCN(CC)CCN(CC)Cc1cccc(C(=O)OCC(NC(=O)C(Cl)Cl)C(O)c2ccc([N+](=O)[O-])cc2)c1 (centres undefined)	-0.05
CC(=O)Nc1ccc(OC(=O)c2cccc(CN3CCN(C)CC3)c2)cc1	1.43

Can you look up the measured log10 T1/2 of CCCNCc1cccc(C(=O)OCC(=O)[C@@]2(O)CCC3C4CCC5=CC(=O)CCC5(C)C4C(O)CC32C)c1 (some centres undefined) for me?
1.58

Let us now turn to `CCN(CC)Cc1cccc(C(=O)OCn2cnc3c2c(=O)n(C)c(=O)n3C)c1`
-0.40

Let us now turn to `Cc1ncc([N+](=O)[O-])n1CCOC(=O)c1cccc(CN2CCOCC2)c1`
0.70

These data points were gathered from ChEMBL document CHEMBL1124371.
